Reference for the values: the supplement of paper PMC11316812

Tested on: hTERT-HMEC
assay-explanation: percentage of EdU-negative (G0-arrested) nuclei per well, 72 h; higher = more G0 arrest
condition-summary: protein concentration 0.0225 µM; reference: sequence is the full UniProt precursor, the tested protein was the secreted form or ectodomain
Recorded measurements of percentage of EdU-negative, one per entry
Please report the result as a number followed by the unit.

Incoming: Enter percentage of EdU-negative (test system hTERT-HMEC) for MVPRISAAIFIFELLGSNSEGVTDLRLWLCQPAPRCGEWTYNPLEQCCDDGVILDLNQTRLCGSSCTFWPCFQHCCLESLGSQNQTVVRFKVPGMKPDCKSSPITRICAQEYHPKSPVSRSDLI [Q6B9Z1]
Outgoing: 4.65%

Incoming: Enter percentage of EdU-negative (test system hTERT-HMEC) for "MEIPVPVQPSWLRRASAPLPGLSAPGRLFDQRFGEGLLEAELAALCPTTLAPYYLRAPSVALPVAQVPTDPGHFSVLLDVKHFSPEEIAVKVVGEHVEVHARHEERPDEHGFVAREFHRRYRLPPGVDPAAVTSALSPEGVLSIQAAPASAQAPPPAAAK"
Outgoing: 4.93%

Incoming: Enter percentage of EdU-negative (test system hTERT-HMEC) for MLPWLLVFSALGIQAWGDSSWNKTQAKQVSEGLQYLFENISQLTEKGLPTDVSTTVSRKAWGAEAVGCSIQLTTPVNVLVIHHVPGLECHDQTVCSQRLRELQAHHVHNNSGCDVAYNFLVGDDGRVYEGVGWNIQGVHTQGYNNISLGFAFFGTKKGHSPSPAALSAMENLITYAVQKGHLSSSYVQPLLGKGENCLAPRQKTSLKKACPGVVPRSVWGARETHCPRMTLPAKYGIIIHTAGRTCNISDECRLLVRDIQSFYIDRLKSCDIGYNFLVGQDGAIYEGVGWNVQGSSTPGYDDIALGITFMGTFTGIPPNAAALEAAQDLIQCAMVKGYLTPNYLLVGHSDVARTLSPGQALYNIISTWPHFKH [Q96LB8]
Outgoing: 5.75%

====

System: hTERT-HMEC;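 also: secreted proteins added to cultured cells, EdU pulse at the end, nuclei found by Hoechst imaging, EdU status from nuclear versus surrounding ring intensity ratio, PBS as neutral control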
assay-explanation: percentage of EdU-negative (G0-arrested) nuclei per well, 72 h; higher = more G0 arrest
condition-summary: protein concentration 0.0225 µM; reference: sequence is the full UniProt precursor, the tested protein was the secreted form or ectodomain
parameter: percentage of EdU-negative
Please report the result as a number followed by the unit.

Would you please look over these solved cases?
- sequence: "MRLAVLFSGALLGLLAAQGTGNDCPHKKSATLLPSFTVTPTVTESTGTTSHRTTKSHKTTTHRTTTTGTTSHGPTTATHNPTTTSHGNVTVHPTSNSTATSQGPSTATHSPATTSHGNATVHPTSNSTATSPGFTSSAHPEPPPPSPSPSPTSKETIGDYTWTNGSQPCVHLQAQIQIRVMYTTQGGGEAWGISVLNPNKTKVQGSCEGAHPHLLLSFPYGHLSFGFMQDLQQKVVYLSYMAVEYNVSFPHAAQWTFSAQNASLRDLQAPLGQSFSCSNSSIILSPAVHLDLLSLRLQAAQLPHTGVFGQSFSCPSDRSILLPLIIGLILLGLLALVLIAFCIIRRRPSAYQAL"
  percentage of EdU-negative: "4.81%"
- sequence: "MQCRLPRGLAGALLTLLCMGLLCLRYHLNLSPQRVQGTPELSQPNPGPPKLQLHDVFIAVKTTRAFHRLRLELLLDTWVSRTREQTFVFTDSPDKGLQERLGSHLVVTNCSAEHSHPALSCKMAAEFDTFLASGLRWFCHVDDDNYVNPRALLQLLRAFPLARDVYVGRPSLNRPIHASEPQPHNRTRLVQFWFATGGAGFCINRKLALKMAPWASGSRFMDTSALIRLPDDCTMGYIIECKLGGRLQPSPLFHSHLETLQLLRTAQLPEQVTLSYGVFEGKLNVIKLQGPFSPEEDPSRFRSLHCLLYPDTPWCPQLGAR"
  percentage of EdU-negative: "5.18%"

Query sequence follows.
Incoming: Assign percentage of EdU-negative to the following record: MLPPPRPAAALALPVLLLLLVVLTPPPTGARPSPGPDYLRRGWMRLLAEGEGCAPCRPEECAAPRGCLAGRVRDACGCCWECANLEGQLCDLDPSAHFYGHCGEQLECRLDTGGDLSRGEVPEPLCACRSQSPLCGSDGHTYSQICRLQEAARARPDANLTVAHPGPCESGPQIVSHPYDTWNVTGQDVIFGCEVFAYPMASIEWRKDGLDIQLPGDDPHISVQFRGGPQRFEVTGWLQIQAVRPSDEGTYRCLGRNALGQVEAPASLTVLTPDQLNSTGIPQLRSLNLVPEEEAESEENDDYY [Q96I82]
Outgoing: 5.43%
